Catalogue of compounds with associated growth inhibition
assay: NCI Yeast Anticancer Drug Screen. Data for the cln2 rad14 strain (AID 165);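 note: 0% = growth equal to vehicle treated cultures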; conditions: S. cerevisiae cln2 rad14 strain, at 5.0 µM (retest, dose inferred, filed as 0.5), stronger effect = higher value
The panel holds about 79,000 compounds, 15% with a hit somewhere; the sample as a whole holds those more often.
Respond with the bare value in %.

Example entries begin here.
Cn1c2c(c3ccccc31)CCN(CCCN1CCN(c3cccc(Cl)c3)CC1)C2=O 11
CCCCCCCCCCCCCCCCC/C=N\NC(=O)CCCC(=O)N/N=C/CCCCCCCCCCCCCCCCC 4
Cc1c(CNc2ccc(Cl)c(Cl)c2Cl)cnc2nc(N)nc(N)c12 34
O=C1CN(/N=C\c2ccc([N+](=O)[O-])o2)C(=O)N1 -5

Here's the next entry for you.
Problem: Give reported growth inhibition value for C[n+]1c(/C=C\c2ccccc2)sc2ccccc21
Result: 19

----------
Catalogue of compounds with associated growth inhibition
experiment: NCI Yeast Anticancer Drug Screen. Data for the mec2-1 strain (AID 157); details: S. cerevisiae mec2-1 strain, at 5.0 µM (retest, dose inferred, filed as 0.5), stronger effect = higher value
Compounds without any hit were thinned out: in the full panel of roughly 79,000, 15% have a hit. Calls of active or inactive are those of the source. Rule as the data show it: active = growth inhibition above about 70%; inactive = the rest.

Example entries begin here.
COMPOUND	growth inhibition
C1=CC2C(c3cccc4ccccc34)O[C@H]2O1 (some centres not stated)	11% (inactive)
NC(C(=O)O)C1=CCCCCC1 (configuration not stated)	20% (inactive)
Cc1ccc(C)c(C(=O)/C=C/C(=O)O)c1	22% (inactive)
COc1ccc2c(c1)c(=O)c1c(NCCN(C)C)ccc3nnn2c31	-18% (inactive)
CCCCCCCCCCCCCCCC[N+](C)(C)c1ccccc1	98% (active)

Problem: Give reported growth inhibition value for O=C(O)c1cccc(S(=O)(=O)NN2C(=O)CSC2c2c(O)ccc3ccccc23)c1 (configuration not stated)
Result: 0% (inactive)

Problem: Give reported growth inhibition value for C(=C\c1cnnc2ccccc12)/c1ccco1
Result: 5% (inactive)

Problem: Give reported growth inhibition value for c1cc[c]([Ge]([O]c2cccc3cccnc23)([c]2ccccc2)[c]2ccccc2)cc1
Result: 7% (inactive)

Problem: Give reported growth inhibition value for OC1CC2CCC(C1)N2CCCN1c2ccccc2Sc2ccc(Cl)cc21 (configuration not stated)
Result: 13% (inactive)

----------
Catalogue of compounds with associated growth inhibition
assay: NCI Yeast Anticancer Drug Screen. Data for the cln2 rad14 strain (AID 165);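 note: 0% = growth equal to vehicle treated cultures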; details: S. cerevisiae cln2 rad14 strain, at 5.0 µM (retest, dose inferred, filed as 0.5), stronger effect = higher value
About 79,000 compounds went through this panel and 15% of them were active in at least one assay; those are over-represented in the sample as a whole. Active and inactive are the calls of the source. Rule as the data show it: active = growth inhibition above about 70%; inactive = the rest.

Example entries begin here.
COMPOUND	growth inhibition
N#C/C=C/C=C/C#N	-1% (inactive)
CCOC(=O)c1[nH]cnc1/N=N/c1nc(O)c(C#N)[nH]1	6% (inactive)
COc1ccc(C(CC(=O)c2ccc(C)cc2)Sc2ccccc2N)cc1 (stereo unspecified)	44% (inactive)
Nc1ncnc2c1c(-c1ccccc1)cn2-c1ccc(Br)cc1	13% (inactive)
COc1ccc(C(=O)c2ccc([N+](=O)[O-])cc2)cc1	-15% (inactive)
Clc1ccc2nc3c(c(N4CCCCC4)c2c1)CCCC3	2% (inactive)
O=P(N=P(c1ccccc1)(c1ccccc1)c1ccccc1)(c1ccccc1)c1ccccc1	40% (inactive)
CCCCc1c2c(nc3c1CCC/C3=C\c1ccccc1)C(=O)C(CN(C)C)CC2 (stereo unspecified)	11% (inactive)

Problem: Give reported growth inhibition value for Cc1ccc2c(c1)-c1c(c3c(c4c1-c1cc(C)ccc1CC4)C(=O)OC3=O)CC2
Result: 14% (inactive)

Problem: Give reported growth inhibition value for COc1cc(C(=O)C2OC2c2ccc(Cl)cc2)c([N+](=O)[O-])cc1OC (stereo unspecified)
Result: 36% (inactive)

Problem: Give reported growth inhibition value for COc1cc2c(c(-c3cn(C)c4ccccc34)c1OC)OCO2
Result: -1% (inactive)

----------
Catalogue of compounds with associated growth inhibition
assay: NCI Yeast Anticancer Drug Screen. Data for the sgs1 mgt1 strain (AID 161);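 note: 0% = growth of cultures given vehicle only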; conditions: S. cerevisiae sgs1 mgt1 strain, at 5.0 µM (retest, dose inferred, filed as 0.5), stronger effect = higher value
About 79,000 compounds went through this panel and 15% of them were active in at least one assay; those are over-represented in the sample as a whole. Activity calls are given as the source filed them. No stated cut-off is given here; in the data, active means growth inhibition above about 70%; inactive means the rest.

Example entries begin here.
COMPOUND	growth inhibition
O=C(/C(=N/O)[n+]1ccccc1)c1ccccc1	-9% (inactive)
C=CCc1cccc(/C=N\N=C(/N)NO)c1O	3% (inactive)

Problem: Give reported growth inhibition value for Oc1cc(F)cc2cccnc12
Result: 99% (active)

----------
Catalogue of molecules with associated growth inhibition
experiment: NCI Yeast Anticancer Drug Screen. Data for the mec2-1 strain (AID 157); conditions: S. cerevisiae mec2-1 strain, at 50.0 µM (retest, dose inferred, filed as 5.0), stronger effect = higher value
About 79,000 compounds went through this panel and 15% of them were active in at least one assay; those are over-represented in the sample as a whole.
Respond with the bare value in %.

MOLECULE	METRIC NAME	EXPERIMENTAL RESULT
O=C(/C(=N/O)[n+]1ccccc1)c1ccccc1	growth inhibition	60
O=C(c1cccs1)N(C(=S)N1CCN(c2ccccn2)CC1)c1ccccc1	growth inhibition	8
O=C(/C(=C\I)c1ccccc1)c1ccccc1	growth inhibition	-15
Clc1ccc2ns[s+]c2c1	growth inhibition	93

Problem: Give reported growth inhibition value for O=C1OC(=O)C2C1C1(c3ccccc3)OC2(c2ccccc2)c2c(Br)c(Br)c(Br)c(Br)c21 (stereo unspecified)
Result: 100

Problem: Give reported growth inhibition value for Clc1ccc(CN2COc3c(cc(Cl)c4cccnc34)C2)cc1Cl
Result: 97

----------
assay: NCI Yeast Anticancer Drug Screen. Data for the sgs1 mgt1 strain (AID 161);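 note: 0% = growth of cultures given vehicle only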; conditions: S. cerevisiae sgs1 mgt1 strain, at 50.0 µM
About 79,000 compounds went through this panel and 15% of them were active in at least one assay; those are over-represented in the sample as a whole. Activity calls are given as the source filed them. No stated cut-off is given here; in the data, active means growth inhibition above about 70%; inactive means the rest.
Please state which outcome applies, choosing from active, inactive

The examples below pair each entry with its known result.
COMPOUND	CLASSIFICATION
COc1cc2c(cc1C(C)C)CCC1C(C)(C#N)CCCC21C (stereo unspecified)	inactive
COc1cc(O)c2c(c1)C(=O)c1cc3c(c(O)c1C2=O)C(OC1OC(C)C(O)C(O)C1OC)C(OC)C(C)(O)C3=O (stereo unspecified)	active
CCOC(=O)C(=O)C1CCCCC1=O (stereo unspecified)	active

Below: the item to evaluate.
Problem: Just curious, what result did O=[N+]([O-])c1c(O)cccc1O get here?
Result: active

----------
assay: NCI Yeast Anticancer Drug Screen. Data for the rad50 strain (AID 155);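 note: 0% = growth of vehicle-only cultures of the same strain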; details: S. cerevisiae rad50 strain growth inhibition; at 5.0 µM (retest, dose inferred, filed as 0.5)
The panel holds about 79,000 compounds, 15% with a hit somewhere; the sample as a whole holds those more often. Active and inactive are the calls of the source. Rule as the data show it: active = growth inhibition above about 70%; inactive = the rest.
Please state which outcome applies, choosing from active, inactive

MOLECULE	CLASSIFICATION
Cc1n(CC(C)C)c2c([n+]1CC(=O)c1ccc([N+](=O)[O-])cc1)C(=O)c1ccccc1C2=O	inactive
CCC(C(=O)CCN(C)C)(c1ccccc1)c1ccccc1	inactive

Problem: Just curious, what result did OCC(O)C(O)C(O)C(/C=N/Nc1ccccc1)=N\Nc1ccccc1 (stereo not given) get here?
Result: inactive

Problem: Just curious, what result did O=C(c1ccc([N+](=O)[O-])cc1)c1[nH]c2ccccc2c(=O)c1-c1ccccc1 get here?
Result: inactive

----------
Catalogue of compounds with associated growth inhibition
assay: NCI Yeast Anticancer Drug Screen. Data for the sgs1 mgt1 strain (AID 161);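 note: 0% = growth of cultures given vehicle only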; settings: S. cerevisiae sgs1 mgt1 strain, at 50.0 µM, stronger effect = higher value
About 79,000 compounds went through this panel and 15% of them were active in at least one assay; those are over-represented in the sample as a whole.
Respond with the bare value in %.

COMPOUND	EXPERIMENTAL RESULT
c1ccc2nc3ccccc3nc2c1	28.4

Problem: Give reported growth inhibition value for CC(C)=CCC/C(C)=C/COC(=O)Nc1ccccc1
Result: 62.3

Problem: Give reported growth inhibition value for Oc1c(Br)cc(Br)cc1-c1ccccc1
Result: 99.5

Problem: Give reported growth inhibition value for CCOC(=O)CNC(=O)CNC(=O)CNC(c1ccccc1)(c1ccccc1)c1ccccc1
Result: 55.1

----------
Catalogue of compounds with associated growth inhibition
test: NCI Yeast Anticancer Drug Screen. Data for the mlh1 rad18 strain (AID 175); conditions: S. cerevisiae mlh1 rad18 strain growth inhibition; at 50.0 µM (retest, dose inferred, filed as 5.0); stronger effect = higher value
This is part of a sample that, as a whole, favours compounds with a hit. Of some 79,000 tested, about 15% had one in any assay.
Respond with the bare value in %.

COMPOUND	UNIT LABEL	EXPERIMENTAL RESULT
CC1=C(C(=O)Nc2cccc(Cl)c2)C(c2ccc([N+](=O)[O-])cc2)C(C(=O)Nc2cccc(Cl)c2)=C(C)N1	%	51
CN(Cc1ccccc1)CC(O)c1cc(-c2ccc(Cl)cc2)nc2ccccc12 (stereo not given)	%	99
CCCCc1cc2c(cc1O)CCC1C2CC[C@@]2(C)C1CC[C@@H]2O (stereo not given in full)	%	96
Cc1c2c(c(C)c3c4c(oc13)CCCC4)C=NCC2	%	45
CCOC(=O)C(=Cc1ccc(OC)cc1)C(=O)OCC	%	77

Problem: Give reported growth inhibition value for CCNC(=S)N/N=C(/C)c1cccc(/C(C)=N\NC(=S)NCC)n1
Result: 22

Problem: Give reported growth inhibition value for Nc1ccc(-c2nc3ccccc3s2)cc1I
Result: 77
